target: TRAILR2 receptor on the surface of human tumor cells (human, UniProt O14763 56-440); test: cell-based or functional assay
Please assign false (0) whenever IC50, cytotoxic effect on Mia PaCa-2 cells (CellTiter-Glo, 72 h) is at or above 0.2 µg/mL, and true (1) whenever it is below.

Req: I wonder whether Zapadcine-1c (antibody, V domains shown, MMAD coupled through linker Py-MAA by thiol bridge coupling, non-cleavable; positions not given) VH: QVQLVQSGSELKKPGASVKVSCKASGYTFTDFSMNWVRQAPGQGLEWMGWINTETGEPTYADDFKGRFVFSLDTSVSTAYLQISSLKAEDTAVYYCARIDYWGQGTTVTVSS VL: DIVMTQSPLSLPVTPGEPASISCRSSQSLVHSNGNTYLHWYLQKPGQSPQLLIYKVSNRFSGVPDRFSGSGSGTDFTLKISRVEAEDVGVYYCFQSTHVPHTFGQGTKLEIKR has IC50, cytotoxic effect on Mia PaCa-2 cells (CellTiter-Glo, 72 h) below 0.2 µg/mL. Can you tell?
Resp: true (1)

Req: I wonder whether Zaptuzumab (antibody, V domains shown) VH: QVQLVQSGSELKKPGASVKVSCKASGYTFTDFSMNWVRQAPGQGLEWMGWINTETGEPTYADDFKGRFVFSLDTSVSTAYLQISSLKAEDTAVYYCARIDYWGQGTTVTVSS VL: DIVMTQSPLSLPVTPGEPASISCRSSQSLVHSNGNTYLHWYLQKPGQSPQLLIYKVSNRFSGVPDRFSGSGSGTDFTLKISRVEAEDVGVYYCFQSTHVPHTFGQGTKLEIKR has IC50, cytotoxic effect on Mia PaCa-2 cells (CellTiter-Glo, 72 h) below 0.2 µg/mL. Can you tell?
Resp: false (0)

Req: I wonder whether Zapadcine-1a (antibody, V domains shown, MMAD coupled through linker Py-Vc-PAB by thiol (disulfide) bridge coupling, cleavable; positions not given) VH: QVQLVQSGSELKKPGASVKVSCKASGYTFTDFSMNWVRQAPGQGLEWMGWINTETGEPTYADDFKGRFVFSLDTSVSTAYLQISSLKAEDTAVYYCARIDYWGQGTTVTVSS VL: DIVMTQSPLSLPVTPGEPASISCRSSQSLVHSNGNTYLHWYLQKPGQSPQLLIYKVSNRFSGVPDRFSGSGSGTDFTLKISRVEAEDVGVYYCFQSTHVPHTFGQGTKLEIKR has IC50, cytotoxic effect on Mia PaCa-2 cells (CellTiter-Glo, 72 h) below 0.2 µg/mL. Can you tell?
Resp: true (1)

Req: I wonder whether Zapadcine-1b (antibody, V domains shown, MMAD coupled through linker Mc-Vc-PAB by thiol conventional coupling, cleavable; positions not given) VH: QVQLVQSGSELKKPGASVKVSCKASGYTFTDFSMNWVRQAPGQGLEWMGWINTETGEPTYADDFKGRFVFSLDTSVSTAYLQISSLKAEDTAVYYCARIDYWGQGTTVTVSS VL: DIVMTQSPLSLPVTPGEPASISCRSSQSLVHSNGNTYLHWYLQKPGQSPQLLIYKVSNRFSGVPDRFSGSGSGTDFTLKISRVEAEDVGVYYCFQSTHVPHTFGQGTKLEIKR has IC50, cytotoxic effect on Mia PaCa-2 cells (CellTiter-Glo, 72 h) below 0.2 µg/mL. Can you tell?
Resp: false (0)

Req: I wonder whether Zapadcine-1d (antibody, V domains shown, MMAF coupled through linker Mc-Vc-PAB by thiol conventional coupling, cleavable; positions not given) VH: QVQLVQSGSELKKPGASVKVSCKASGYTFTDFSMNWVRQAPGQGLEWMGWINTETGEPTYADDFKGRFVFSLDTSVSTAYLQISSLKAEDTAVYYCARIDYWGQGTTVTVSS VL: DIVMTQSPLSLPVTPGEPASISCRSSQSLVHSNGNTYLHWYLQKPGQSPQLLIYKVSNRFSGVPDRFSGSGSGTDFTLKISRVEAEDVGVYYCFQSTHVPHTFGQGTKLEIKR has IC50, cytotoxic effect on Mia PaCa-2 cells (CellTiter-Glo, 72 h) below 0.2 µg/mL. Can you tell?
Resp: false (0)
